tgt: furin, P09958
Sequence (P09958 whole entry): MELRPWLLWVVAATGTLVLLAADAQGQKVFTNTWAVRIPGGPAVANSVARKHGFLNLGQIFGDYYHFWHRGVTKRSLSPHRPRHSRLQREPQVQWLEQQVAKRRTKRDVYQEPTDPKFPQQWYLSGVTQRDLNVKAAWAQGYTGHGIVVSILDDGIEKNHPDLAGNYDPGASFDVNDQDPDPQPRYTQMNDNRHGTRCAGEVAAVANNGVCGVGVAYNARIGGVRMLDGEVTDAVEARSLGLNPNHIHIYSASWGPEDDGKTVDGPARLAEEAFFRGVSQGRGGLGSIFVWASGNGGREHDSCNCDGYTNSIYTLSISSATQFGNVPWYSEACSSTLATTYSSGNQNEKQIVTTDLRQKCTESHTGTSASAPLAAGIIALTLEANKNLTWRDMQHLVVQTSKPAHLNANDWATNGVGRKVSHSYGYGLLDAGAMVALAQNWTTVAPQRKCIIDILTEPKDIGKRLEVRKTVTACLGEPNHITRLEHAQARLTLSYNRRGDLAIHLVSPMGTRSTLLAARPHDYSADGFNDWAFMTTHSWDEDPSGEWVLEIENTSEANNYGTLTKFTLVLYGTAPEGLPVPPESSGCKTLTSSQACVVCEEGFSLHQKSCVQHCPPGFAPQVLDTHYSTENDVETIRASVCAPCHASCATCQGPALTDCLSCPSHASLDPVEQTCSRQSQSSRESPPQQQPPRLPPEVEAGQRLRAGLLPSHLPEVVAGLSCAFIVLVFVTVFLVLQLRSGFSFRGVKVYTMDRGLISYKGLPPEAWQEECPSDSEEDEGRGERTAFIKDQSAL
experimental.details: furin cleavage Z-score vs untreated control; higher = more cleavage, active = 3.5 or more, inactive = 1 or less, 8 variable residues between constant flanks;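 further: purified furin at 1:10 enzyme:substrate in 50 mM HEPES pH 7.5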
condition.context: 7.5 min
This is one part of the list. The true hit rate is not given.
Lab note: assign the record to one of true for active, false for inactive

// outcome(item) with item = CAKGWRLLAPAGNASASA [HC671] false

Just curious, what result did CAPTPLLYRLAGNASASA [HC971] get here? false

So what was the verdict on CARPKRRKPRAGNASASA [FS-3017] in this test? true

Assay outcome for CAVTQLLRRLAGNASASA [HC1137] : what was it? false

Assay result, entry CARKKRALDAAGNASASA [FS-2691] — outcome? true

How was CAEVVTSTWKAGNASASA [HC2254] classified in this test? false

Per the records of this test, what outcome belongs to CARNSTGLYHAGNASASA [HC258] ? false

For CAEVPCHMPSAGNASASA [HC2366] , what call appears in the results of this test? false

Record lookup: outcome of this test for CAGDVVCCSMAGNASASA [HC2116] ? false

The measurements presented in this section are drawn from the supplement of paper PMC3545927.
